tested on: Acinetobacter baumannii strains; test: Antibiotic susceptibility test (CLSI disk diffusion test method, read per CLSI 2016); type: cell-based; conditions: host strain YMC14/02/R2668; also: key: ‘S’ means susceptible; ‘I’ means intermediate; ‘R’ means resistant
EXPERIMENTAL_READOUT: antibiotic susceptibility class

CCN1CCN(C(=O)N[C@@H](C(=O)N[C@@H]2C(=O)N3[C@@H]2SC(C)(C)[C@@H]3C(=O)O)c2ccccc2)C(=O)C1=O :: R
CO/N=C(\C(=O)N[C@@H]1C(=O)N2C(C(=O)O)=C(COC(C)=O)CS[C@H]12)c1csc(N)n1 :: R
C[C@@H](O)[C@H]1C(=O)N2C(C(=O)O)=C(S[C@@H]3CN[C@H](C(=O)N(C)C)C3)[C@H](C)[C@H]12 :: R

----------
system: Acinetobacter baumannii strains; assay: Antibiotic susceptibility test (CLSI disk diffusion test method, read per CLSI 2016); type: cell-based; details: host strain YMC16/12/B11449; also: key: ‘S’ means susceptible; ‘I’ means intermediate; ‘R’ means resistant
EXPERIMENTAL_READOUT: susceptibility category (S/I/R)

Consider the reported susceptibility category (S/I/R) for these compounds:
CCN1CCN(C(=O)N[C@@H](C(=O)N[C@@H]2C(=O)N3[C@@H]2SC(C)(C)[C@@H]3C(=O)O)c2ccccc2)C(=O)C1=O :: R
CO/N=C(\C(=O)N[C@@H]1C(=O)N2C(C(=O)O)=C(COC(C)=O)CS[C@H]12)c1csc(N)n1 :: R
CN(C)c1cc(NC(=O)CNC(C)(C)C)c(O)c2c1C[C@H]1C[C@H]3[C@H](N(C)C)C(O)=C(C(N)=O)C(=O)[C@@]3(O)C(O)=C1C2=O :: S
C[C@@H](O)[C@H]1C(=O)N2C(C(=O)O)=C(S[C@@H]3CN[C@H](C(=O)N(C)C)C3)[C@H](C)[C@H]12 :: R
C[C@H]1COc2c(N3CCN(C)CC3)c(F)cc3c(=O)c(C(=O)O)cn1c23 :: R

Please give the measured susceptibility category (S/I/R) for this compound: C[C@@H](O)[C@H]1C(=O)N2C(C(=O)O)=C(SCCN=CN)C[C@H]12 R

Here is the next compound: NCC[C@H](O)C(=O)N[C@@H]1C[C@H](N)[C@@H](O[C@H]2O[C@H](CN)[C@@H](O)[C@H](O)[C@H]2O)[C@H](O)[C@H]1O[C@H]1O[C@H](CO)[C@@H](O)[C@H](N)[C@H]1O R

Check CC(C)(O/N=C(\C(=O)N[C@@H]1C(=O)N2C(C(=O)[O-])=C(C[n+]3ccccc3)CS[C@H]12)c1csc(N)n1)C(=O)O too. R

Also, CN(C)c1ccc(O)c2c1C[C@H]1C[C@H]3[C@H](N(C)C)C(O)=C(C(N)=O)C(=O)[C@@]3(O)C(O)=C1C2=O please. S

----------
system: Acinetobacter baumannii strains; test: Antibiotic susceptibility test (CLSI disk diffusion test method, read per CLSI 2016); type: cell-based; conditions: host strain YMC15/03/R1604; also: key: ‘S’ means susceptible; ‘I’ means intermediate; ‘R’ means resistant
EXPERIMENTAL_READOUT: antibiotic susceptibility S/I/R

In the examples that follow, each entry is paired with its recorded antibiotic susceptibility S/I/R.
C[C@@H](O)[C@H]1C(=O)N2C(C(=O)O)=C(S[C@@H]3CN[C@H](C(=O)N(C)C)C3)[C@H](C)[C@H]12 :: R
CN(C)c1ccc(O)c2c1C[C@H]1C[C@H]3[C@H](N(C)C)C(O)=C(C(N)=O)C(=O)[C@@]3(O)C(O)=C1C2=O :: S
CC(C)(O/N=C(\C(=O)N[C@@H]1C(=O)N2C(C(=O)[O-])=C(C[n+]3ccccc3)CS[C@H]12)c1csc(N)n1)C(=O)O :: R
CN(C)c1cc(NC(=O)CNC(C)(C)C)c(O)c2c1C[C@H]1C[C@H]3[C@H](N(C)C)C(O)=C(C(N)=O)C(=O)[C@@]3(O)C(O)=C1C2=O :: S
CO/N=C(\C(=O)N[C@@H]1C(=O)N2C(C(=O)O)=C(COC(C)=O)CS[C@H]12)c1csc(N)n1 :: R

// switching to the query molecule
Give Acinetobacter baumannii strains antibiotic susceptibility S/I/R for C[C@@H](O)[C@H]1C(=O)N2C(C(=O)O)=C(SCCN=CN)C[C@H]12 R
